tested on: SK-OV-3 ovarian; assay: NCI tumour cell line growth inhibition, 48 h
Property: TGI; scope: individual compounds

Consider the worked cases shown below.
# compound, test.target, TGI
data = [
    ("COc1ccc(-c2nsc3c2NC(=O)CC3c2ccsc2)cc1 (configuration not stated)", "SK-OV-3 ovarian", "13.7 µM"),
    ("COc1ccc(OC)c2c(C(C)=O)cccc12", "SK-OV-3 ovarian", "> 100 µM"),
    ("CCN(CC)CCOC(COc1cc(C)cc(C)c1)COc1cc(C)cc(C)c1", "SK-OV-3 ovarian", "17.7 µM"),
    ("CCOC(=O)Cc1c(C(=O)OCC)[n+](=O)c2cc(Cl)c(Cl)cc2n1[O-]", "SK-OV-3 ovarian", "11.9 µM"),
    ("O=P(CN1CCOCC1)(c1ccccc1)c1ccccc1", "SK-OV-3 ovarian", "> 100 µM"),
    ("CN(CCN)[C@H](CSSC[C@@H](c1ccccc1O)N(C)CCN)c1ccccc1O", "SK-OV-3 ovarian", "25 µM"),
]

What TGI value was documented for this compound, CCOc1ccc(NC(=O)CC2SC(=Nc3ccc(C)cc3)NC2=O)cc1 (configuration not stated) ?
> 100 µM

Try this compound too: COCN1C(=O)[C@@H]2CCCN2C(=O)c2ccc(N)cc21
> 100 µM

Try this compound too: Cc1cc(NC(=O)NCc2ccc(N3C(N)=NC(N)=NC3(C)C)cc2)ccc1S(=O)(=O)F
> 100 µM

Try this compound too: COc1cc(/C=C(\C)[N+](=O)[O-])cc(OC)c1
> 100 µM

Try this compound too: COc1ccc(-c2nc3ccccc3c(=O)[nH]2)cc1
> 100 µM

Try this compound too: [O]=[Sn]([CH]1CCCCC1)[CH]1CCCCC1
2.52 µM

Try this compound too: Cc1ccc(C2=CC(=O)/C(=C\C(=O)c3ccc(Br)cc3)O2)c(C)c1
29 µM

Try this compound too: CCOC(=O)C(C)c1nc2cc(F)c(F)cc2[nH]c1=O (configuration not stated)
> 100 µM

Try this compound too: CCCC1C[C@H]2CCCCN2[C@H]2CCCN12 (some centres not stated)
> 100 µM

Try this compound too: FC(F)(F)c1ccccc1C1SCc2nc3ccccc3n21 (configuration not stated)
> 100 µM

Try this compound too: O=C(/C=C/c1ccc(OCc2ccccc2)cc1)NCc1ccc(C(=O)NCCc2ccccc2)cc1
> 100 µM

* * *

test system: SN12C renal; test: NCI tumour cell line growth inhibition, 48 h
readout.name: TGI

Consider the worked cases shown below.
# compound, test.target, TGI
records = [
    ("C=CCC(N[C@@H](CO)c1ccccc1)c1ccc2ccccc2n1 (some centres undefined)", "SN12C renal", "> 100 µM"),
    ("CC[C@H](C)[C@H](NC(=O)C12C3C4C1C1C2C3C41NC)C(=O)N(C)[C@H](C[C@@H](OC(C)=O)c1nc(C(=O)N[C@@H](Cc2ccccc2)C[C@H](C)C(=O)OC)cs1)C(C)C (some centres undefined)", "SN12C renal", "> 14.3 µM"),
    ("O=C(Nc1ccn(C2CC(O)C(COC(c3ccccc3)(c3ccccc3)c3ccccc3)O2)c(=O)n1)c1ccccc1 (centres undefined)", "SN12C renal", "3.61 µM"),
    ("Cc1ccc(-c2nc(NCCOCCOCCN)nc(N3CCN(c4ccccn4)CC3)n2)cc1", "SN12C renal", "29.5 µM"),
    ("COc1cc(C2CC(c3ccccc3)=NN2C=O)ccc1Oc1ccnc2cc(Cl)ccc12 (centres undefined)", "SN12C renal", "> 100 µM"),
]

What TGI value was documented for this compound, CC1(C)N=C(C(N)=O)c2[nH]cnc2N1 ?
> 100 µM

Try this compound too: COc1cccc(NC(=O)CC(=O)NN)c1
> 100 µM

Try this compound too: Oc1c(Br)cc2c(c1Br)-c1c(c(O)c3c4c1=NCCC=4C=N3)NCC2
29.3 µM

Try this compound too: CCOC(=O)C(C)c1nc2cc(F)c(F)cc2[nH]c1=O (centres undefined)
> 100 µM
